Reported human MASP2 IC50 values follow for various binders
Target: recombinant human MASP2 active protease (amino acids 297-686, C-terminal His Tag) (human, UniProt O00187 297-686)
Sequence (O00187 other isoform, or with tags, fused parts or gaps limits assumed): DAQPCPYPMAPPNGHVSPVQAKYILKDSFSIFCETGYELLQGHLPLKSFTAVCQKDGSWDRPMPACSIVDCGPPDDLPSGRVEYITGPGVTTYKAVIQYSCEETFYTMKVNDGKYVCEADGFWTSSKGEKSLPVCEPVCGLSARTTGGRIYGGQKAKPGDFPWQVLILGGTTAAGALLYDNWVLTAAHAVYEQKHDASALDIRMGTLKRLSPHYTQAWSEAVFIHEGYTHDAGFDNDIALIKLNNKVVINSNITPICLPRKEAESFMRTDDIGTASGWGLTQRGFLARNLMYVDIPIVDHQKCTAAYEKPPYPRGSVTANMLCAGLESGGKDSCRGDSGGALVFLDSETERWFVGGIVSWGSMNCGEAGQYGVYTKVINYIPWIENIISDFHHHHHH
Assay: cell-based or functional assay
Bridge positions count the residues as written; N and C are the ends. Square brackets hold non-standard residues; d marks the D form. Ends that are not written are not given here. Oic = O=C(O)[C@@H]1C[C@@H]2CCCC[C@@H]2N1; NMeI = CC[C@H](C)[C@H](NC)C(=O)O; tBuAla = CC(C)(C)C[C@H](N)C(=O)O; Pen = CC(C)(S)[C@H](N)C(=O)O; NMeC = CN[C@@H](CS)C(=O)O; Aze = O=C(O)[C@@H]1CCN1
Please give a number only; it is taken to be in nM.

binder	outputUnit	observedValue
AICSRS[tBuAla]P[Oic]ICIPD-NH2 (disulfide 3-11; also: HCl salt) [AIC+SRS-((tBu)A)-P-(Oic)-IC+IPD-NH2 (HCl salt)]	nM	190
AICSRS[tBuAla]PPI[NMeC]IPD-NH2 (disulfide 3-11; also: HCl salt) [AIC+SRS-((tBu)A)-PPI-((N-Me)C)+IPD-NH2 (HCl salt)]	nM	140
[Aze]ICSRS[tBuAla]PPI[Pen]IPD-NH2 (disulfide 3-11) [(Azetidine-2-carboxylic acid)-IC+SRS-((tBu)A)-PPI-(Pen)+IPD-NH2]	nM	68
TICSRS[tBuAla]PPI[Pen]IPD-OH (disulfide 3-11; N-terminus assumed; SMILES CC[C@H](C)[C@H](NC(=O)[C@@H](N)[C@@H](C)O)C(=O)N[C@H]1CSSC(C)(C)[C@@H](C(=O)N[C@H](C(=O)N2CCC[C@H]2C(=O)N[C@@H](CC(=O)O)C(=O)O)[C@@H](C)CC)NC(=O)[C@H]([C@@H](C)CC)NC(=O)[C@@H]2CCCN2C(=O)[C@@H]2CCCN2C(=O)[C@H](CC(C)(C)C)NC(=O)[C@H](CO)NC(=O)[C@H](CCCNC(=N)N)NC(=O)[C@H](CO)NC1=O) [TIC+SRS-((tBu)A)-PPI-(Pen)+IPD-OH]	nM	56
TICSRS[tBuAla]PPI[NMeC]I-NH2 (disulfide 3-11; N-terminus assumed; SMILES CC[C@H](C)[C@H](NC(=O)[C@@H]1CSSC[C@H](NC(=O)[C@@H](NC(=O)[C@@H](N)[C@@H](C)O)[C@@H](C)CC)C(=O)N[C@@H](CO)C(=O)N[C@@H](CCCNC(=N)N)C(=O)N[C@@H](CO)C(=O)N[C@@H](CC(C)(C)C)C(=O)N2CCC[C@H]2C(=O)N2CCC[C@H]2C(=O)N[C@@H]([C@@H](C)CC)C(=O)N1C)C(N)=O) [TIC+SRS-((tBu)A)-PPI-((N-Me)C)+I-NH2]	nM	80

Short answer for A[NMeI]CSRS[tBuAla]P[Oic]I[NMeC]IPD-NH2 (disulfide 3-11; N-terminus assumed; SMILES CC[C@H](C)[C@@H]1NC(=O)[C@@H]2C[C@@H]3CCCC[C@@H]3N2C(=O)[C@@H]2CCCN2C(=O)[C@H](CC(C)(C)C)NC(=O)[C@H](CO)NC(=O)[C@H](CCCNC(=N)N)NC(=O)[C@H](CO)NC(=O)[C@@H](NC(=O)[C@H]([C@@H](C)CC)N(C)C(=O)[C@H](C)N)CSSC[C@@H](C(=O)N[C@H](C(=O)N2CCC[C@H]2C(=O)N[C@@H](CC(=O)O)C(N)=O)[C@@H](C)CC)N(C)C1=O) [A-((N-Me)I)-C+SRS-((tBu)A)-P-(Oic)-I-((N-Me)C)+IPD-NH2] : human MASP2 IC50 was 590

Source: patent US20210246166A1
